- assay name: Cytotoxicity against human WPMY-1 cells assessed as reduction in cell viability measured for 48 hrs by resazurin dye based assay
- Assay type: toxicity
# IC50 at 48 h listing for each entry below
Kindly provide the numeric value in µM only, without the unit symbol.

Examples with their reported IC50 at 48 h follow.
COc1cccc2c1C(=O)c1c(O)c3c(c(O)c1C2=O)C[C@@](O)(C(=O)CO)C[C@@H]3O[C@H]1C[C@H](N)[C@H](O)[C@H](C)O1	0.7
CCCCCCCCCC(=O)N(C)CCCNCCCNCCCNCCCCNCCCNCCCNCCCN(C)C(=O)CCCCCCC(C)C	4.3

Given `CCCCCCCCCC(=O)N(C)CCCNCCCNCCCNCCCCNCCCNCCCNCCCN(C)C(=O)CCCCCCCC(C)C` , respond with its IC50 at 48 h.
4.1
